Data credit: paper PMC9471048

- assayed-system: human α2A‐adrenoceptor (Homo sapiens, UniProt P08913)
- Sequence (P08913 1-465): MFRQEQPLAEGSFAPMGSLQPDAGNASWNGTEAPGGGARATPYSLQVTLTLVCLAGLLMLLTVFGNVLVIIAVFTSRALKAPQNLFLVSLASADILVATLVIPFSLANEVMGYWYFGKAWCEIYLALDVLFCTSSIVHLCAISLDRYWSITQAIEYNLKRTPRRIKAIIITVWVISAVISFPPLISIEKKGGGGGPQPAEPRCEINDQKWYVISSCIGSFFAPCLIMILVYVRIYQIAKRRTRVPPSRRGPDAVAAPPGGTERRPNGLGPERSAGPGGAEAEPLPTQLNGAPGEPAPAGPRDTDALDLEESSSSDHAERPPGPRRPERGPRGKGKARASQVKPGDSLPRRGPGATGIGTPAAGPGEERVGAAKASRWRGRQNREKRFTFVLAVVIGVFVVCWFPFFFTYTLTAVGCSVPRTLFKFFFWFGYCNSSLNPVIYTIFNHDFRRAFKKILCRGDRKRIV
- assay-notes: ERK1/2‐phosphorylation in CHO‐α2A cells
- Assay type: cell-based
- Design: expressed in transfected cells; host or cells: CHO-K1 with CRE-SPAP reporter
- details: CHO‐α2A, maximum response compared to 10 μM PDBu
What % 10 μM PDBu, ERK1/2‐phosphorylation was measured for each of the following?
I only need the number, in %, no unit after it.

query: Provide the reported % 10 μM PDBu, ERK1/2‐phosphorylation (system: human α2A‐adrenoceptor (Homo sapiens, UniProt P08913)) for NC[C@H](O)c1ccc(O)c(O)c1
result: 121.9

query: Give human α2A‐adrenoceptor (Homo sapiens, UniProt P08913) % 10 μM PDBu, ERK1/2‐phosphorylation for the following compound: C[C@H](N)[C@H](O)c1cccc(O)c1
result: 136.4

query: Print human α2A‐adrenoceptor (Homo sapiens, UniProt P08913) % 10 μM PDBu, ERK1/2‐phosphorylation for c1ccc2c(CC3=NCCN3)cccc2c1 .
result: 118.1

query: Fill in % 10 μM PDBu, ERK1/2‐phosphorylation for c1ccc2c(c1)CCCC2C1=NCCN1 (stereo not shown) [Tetrahydrozoline] tested with human α2A‐adrenoceptor (Homo sapiens, UniProt P08913).
result: 123.0

query: Under human α2A‐adrenoceptor (Homo sapiens, UniProt P08913): report % 10 μM PDBu, ERK1/2‐phosphorylation of COc1ccc(OC)c(C(O)C(C)N)c1 (stereo not shown) .
result: 120.9

query: Quote human α2A‐adrenoceptor (Homo sapiens, UniProt P08913) % 10 μM PDBu, ERK1/2‐phosphorylation for entry c1ccc(C2CC2)c(OCC2=NCCN2)c1 .
result: 113.0

query: For human α2A‐adrenoceptor (Homo sapiens, UniProt P08913), give the measured % 10 μM PDBu, ERK1/2‐phosphorylation of the entry Clc1ccc2nsnc2c1NC1=NCCN1
result: 135.7

query: Look up and report measured % 10 μM PDBu, ERK1/2‐phosphorylation (human α2A‐adrenoceptor (Homo sapiens, UniProt P08913)) for the following compound: NCC(O)c1ccc(O)cc1 (stereo not shown)
result: 124.1

query: Report its % 10 μM PDBu, ERK1/2‐phosphorylation with human α2A‐adrenoceptor (Homo sapiens, UniProt P08913) as the test system: CCNCC(O)c1cccc(O)c1 (stereo not shown)
result: 150.8

query: Quote human α2A‐adrenoceptor (Homo sapiens, UniProt P08913) % 10 μM PDBu, ERK1/2‐phosphorylation for entry C1COC(NC(C2CC2)C2CC2)=N1 .
result: 144.0
